target_or_test_system: T1, GABARAP (human, UniProt O95166 1-117, limits assumed)
T1 construct: elsewhere only "mammalian"
T1 sequence (O95166 whole entry): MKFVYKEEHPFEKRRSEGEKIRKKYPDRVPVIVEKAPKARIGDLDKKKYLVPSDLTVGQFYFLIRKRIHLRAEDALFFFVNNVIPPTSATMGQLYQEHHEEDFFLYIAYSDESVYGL
protocol_details: ITC
readout_label: Kd

q: Entry PEDDWTEFSSEEIREARQAAASHAPS [AnkG LIR (AnkG WT peptide, rat 480 kD AnkG residues 1985-2010)] : reported Kd = ?
a: ~2.6 nM

Origin of the recorded values: patent US20210169980A1
